target: gpH2R (Cavia porcellus); design: species or system guinea pig
Sequence (P47747 whole entry): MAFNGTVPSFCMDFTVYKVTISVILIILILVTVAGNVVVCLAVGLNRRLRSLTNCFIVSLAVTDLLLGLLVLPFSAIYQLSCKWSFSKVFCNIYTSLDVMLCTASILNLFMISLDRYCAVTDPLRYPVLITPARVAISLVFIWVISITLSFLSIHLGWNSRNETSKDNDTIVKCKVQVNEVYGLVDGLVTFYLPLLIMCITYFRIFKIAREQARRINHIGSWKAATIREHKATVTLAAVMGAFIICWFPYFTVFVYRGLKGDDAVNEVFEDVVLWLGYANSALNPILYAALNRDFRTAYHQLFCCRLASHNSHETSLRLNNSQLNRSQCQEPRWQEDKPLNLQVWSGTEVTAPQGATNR
pEC50: −log10 of the molar value.
Categorized via pEC50: lowest = under 6, middle = from 6 up to 7, highest = 7 and over

GET /class?item= N=C(NCCCCCCCCCCCCNC(=N)NCCCc1c[nH]cn1)NCCCc1c[nH]cn1 [Compound 57]
highest

GET /class?item= CC(C)(C)NC(=N)NCCCc1c[nH]cn1 [Compound 133]
lowest

GET /class?item= CCCCCCCCCCCCNC(=N)NCCCc1sc(N)nc1C [Compound 139]
middle

GET /class?item= N=C(NCCCCNC(=N)NCCCc1c[nH]cn1)NCCCc1c[nH]cn1 [Compound 54]
highest

GET /class?item= Cc1nc(N)sc1CCCNC(=N)NCCCCCCCCNC(=N)NCCCc1c[nH]cn1 [Compound 61]
highest

GET /class?item= N=C(NCCCCCCCCCCNC(=N)NCCCc1c[nH]cn1)NCCCc1c[nH]cn1 [Compound 56]
highest

GET /class?item= N=C(NCCCCCCCCNC(=N)NCCCc1c[nH]cn1)NCCCc1c[nH]cn1 [Compound 5]
highest

GET /class?item= CCCCCCCCCCCCNC(=N)NCCCc1cnc(N)s1 [Compound 140]
middle

GET /class?item= CCCCCCCCCCNC(=N)NCCCc1c[nH]cn1 [Compound 137]
middle

GET /class?item= CC(C)NC(=N)NCCCc1c[nH]cn1 [Compound 130]
lowest

GET /class?item= CNC(=N)NCCCc1c[nH]cn1 [Compound 127]
lowest

GET /class?item= CCCCCCCCNC(=N)NCCCc1c[nH]cn1 [Compound 136]
middle

GET /class?item= CCNC(=N)NCCCc1c[nH]cn1 [Compound 128]
lowest

GET /class?item= Cc1nc(N)sc1CCCNC(=N)NCCCCCCCCNC(=N)NCCCc1cnc(N)s1 [Compound 63]
highest

GET /class?item= N=C(NCCCNC(=N)NCCCc1c[nH]cn1)NCCCc1c[nH]cn1 [Compound 53]
highest

GET /class?item= CCCCCNC(=N)NCCCc1c[nH]cn1 [Compound 134]
middle

GET /class?item= N=C(NCCCCCCNC(=N)NCCCc1c[nH]cn1)NCCCc1c[nH]cn1 [Compound 55]
highest

GET /class?item= N=C(NCCCCCCCCNC(=N)NCCCn1ccnc1)NCCCn1ccnc1 [Compound 60]
lowest

GET /class?item= N=C(NCCCCCCCCNC(=N)NCCCc1cnc(N)s1)NCCCc1c[nH]cn1 [Compound 62]
highest

GET /class?item= CC(C)CCNC(=N)NCCCc1c[nH]cn1 [Compound 135]
middle

GET /class?item= CCCCCCCCCCCCNC(=N)NCCCc1c[nH]cn1 [Compound 138]
middle

GET /class?item= N=C(NCCCCCCCCNC(=N)NCCCc1cnc(N)s1)NCCCc1cnc(N)s1 [Compound 59]
highest

----------
target: hH3R (Homo sapiens, UniProt Q9Y5N1); assay: [35S]GTPγS binding assay, Sf9 cell membranes
Sequence (Q9Y5N1 whole entry): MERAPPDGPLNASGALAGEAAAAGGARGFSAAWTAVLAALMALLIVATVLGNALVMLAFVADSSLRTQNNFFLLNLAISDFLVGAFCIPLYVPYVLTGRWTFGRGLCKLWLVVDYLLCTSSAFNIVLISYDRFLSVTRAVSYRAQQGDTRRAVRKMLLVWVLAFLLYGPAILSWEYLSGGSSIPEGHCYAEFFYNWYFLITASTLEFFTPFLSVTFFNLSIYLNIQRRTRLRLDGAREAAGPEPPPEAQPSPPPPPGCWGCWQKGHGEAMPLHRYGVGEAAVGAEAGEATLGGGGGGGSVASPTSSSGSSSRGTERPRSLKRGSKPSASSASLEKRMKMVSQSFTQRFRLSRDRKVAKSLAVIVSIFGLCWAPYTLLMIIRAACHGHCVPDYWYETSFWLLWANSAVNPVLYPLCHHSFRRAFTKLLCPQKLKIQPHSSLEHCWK
property-measured: EC50 (nM)
Just the number please, in nM, no unit attached.

The measured EC50 associated with CCCCCCCCNC(=N)NCCCc1c[nH]cn1 [Compound 136] reads 28.8

----------
I'd appreciate it if you could supply Kb values for the items below.
target: gpH1R (Cavia porcellus); assay: Histamine H1 receptor assay on isolated guinea pig ileum
Just the number please, in nM, no unit attached.

The measured Kb associated with CCCCCCCCCCCCNC(=N)NCCCc1sc(N)nc1C reads 437

The measured Kb associated with CCCCCCCCCCCCNC(=N)NCCCc1c[nH]cn1 reads 195

The measured Kb associated with CC(C)NC(=N)NCCCc1c[nH]cn1 reads 5370

The measured Kb associated with CCCCCCCCNC(=N)NCCCc1c[nH]cn1 reads 794

----------
target: hH1R (Homo sapiens); assay: biochemical; assay type: binding; conditions: hH1R pKi
Sequence (P35367 whole entry): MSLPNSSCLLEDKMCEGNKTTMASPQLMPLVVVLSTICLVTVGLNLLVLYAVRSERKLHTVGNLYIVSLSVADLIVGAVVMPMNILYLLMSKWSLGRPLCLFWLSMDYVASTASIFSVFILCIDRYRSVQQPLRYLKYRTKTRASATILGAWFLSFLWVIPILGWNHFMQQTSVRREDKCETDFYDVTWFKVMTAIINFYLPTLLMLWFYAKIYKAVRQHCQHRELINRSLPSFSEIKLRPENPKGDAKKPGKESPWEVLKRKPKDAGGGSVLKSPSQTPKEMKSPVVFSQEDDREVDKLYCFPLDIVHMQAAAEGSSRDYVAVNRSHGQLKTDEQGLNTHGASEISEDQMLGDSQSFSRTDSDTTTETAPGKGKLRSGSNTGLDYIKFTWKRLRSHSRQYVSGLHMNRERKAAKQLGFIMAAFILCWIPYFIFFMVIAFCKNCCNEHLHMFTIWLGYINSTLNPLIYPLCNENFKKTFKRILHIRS
pKi: −log10 of the molar value.
property-measured: pKi

The measured pKi associated with CCCCCCCCCCCCNC(=N)NCCCc1cnc(N)s1 [Compound 140] reads < 5.50

The measured pKi associated with Cc1nc(N)sc1CCCNC(=N)NCCCCCCCCNC(=N)NCCCc1cnc(N)s1 [Compound 63] reads < 5.50

The measured pKi associated with Cc1nc(N)sc1CCCNC(=N)NCCCCCCCCNC(=N)NCCCc1sc(N)nc1C [Compound 58] reads < 5.50

The measured pKi associated with CCCCCCCCCCNC(=N)NCCCc1c[nH]cn1 [Compound 137] reads 5.70

The measured pKi associated with N=C(NCCCCCCNC(=N)NCCCc1c[nH]cn1)NCCCc1c[nH]cn1 [Compound 55] reads < 5.50

The measured pKi associated with CCCCCCCCNC(=N)NCCCc1c[nH]cn1 [Compound 136] reads < 5.50

The measured pKi associated with N=C(NCCCCCCCCCCNC(=N)NCCCc1c[nH]cn1)NCCCc1c[nH]cn1 [Compound 56] reads 5.90

The measured pKi associated with N=C(NCCCCCCCCNC(=N)NCCCc1cnc(N)s1)NCCCc1cnc(N)s1 [Compound 59] reads < 5.00

The measured pKi associated with N=C(NCCCCCCCCNC(=N)NCCCn1ccnc1)NCCCn1ccnc1 [Compound 60] reads < 5.00

The measured pKi associated with N=C(NCCCCCCCCNC(=N)NCCCc1c[nH]cn1)NCCCc1c[nH]cn1 [Compound 5] reads 5.50

The measured pKi associated with CC(C)CCNC(=N)NCCCc1c[nH]cn1 [Compound 135] reads < 5.00

The measured pKi associated with CCCCCCCCCCCCNC(=N)NCCCc1sc(N)nc1C [Compound 139] reads < 5.50

The measured pKi associated with CCCCCCCCCCCCNC(=N)NCCCn1ccnc1 [Compound 141] reads < 5.50

The measured pKi associated with CCCCCNC(=N)NCCCc1c[nH]cn1 [Compound 134] reads < 5.00

The measured pKi associated with N=C(NCCCCNC(=N)NCCCc1c[nH]cn1)NCCCc1c[nH]cn1 [Compound 54] reads < 5.00

The measured pKi associated with CC(C)NC(=N)NCCCc1c[nH]cn1 [Compound 130] reads < 5.00

----------
I'd appreciate it if you could supply pKi values for the items below.
biological target: hH3R (Homo sapiens, UniProt Q9Y5N1); test: Radioligand competition binding with [3H]Nα-methylhistamine, Sf9 cell membranes; conditions: hH3R pKi, [3H]Nα-methylhistamine (Kd 8.6 nM, c = 3 nM); mean ± SEM
When answering, recall that pKi equals minus log10 of the concentration in mol/L, and write that number alone.

The measured pKi that CC(C)NC(=N)NCCCc1c[nH]cn1 showed for hH3R (Homo sapiens, UniProt Q9Y5N1) is 7.04

The measured pKi that N=C(NCCCNC(=N)NCCCc1c[nH]cn1)NCCCc1c[nH]cn1 showed for hH3R (Homo sapiens, UniProt Q9Y5N1) is 6.95

The measured pKi that N=C(NCCCCCCNC(=N)NCCCc1c[nH]cn1)NCCCc1c[nH]cn1 showed for hH3R (Homo sapiens, UniProt Q9Y5N1) is 7.28

The measured pKi that CCCCCNC(=N)NCCCc1c[nH]cn1 showed for hH3R (Homo sapiens, UniProt Q9Y5N1) is 7.04

The measured pKi that Cc1nc(N)sc1CCCNC(=N)NCCCCCCCCNC(=N)NCCCc1c[nH]cn1 showed for hH3R (Homo sapiens, UniProt Q9Y5N1) is 7.49

The measured pKi that CCCCCCCCCCCCNC(=N)NCCCc1c[nH]cn1 showed for hH3R (Homo sapiens, UniProt Q9Y5N1) is 7.53

The measured pKi that CCCCCCCCNC(=N)NCCCc1c[nH]cn1 showed for hH3R (Homo sapiens, UniProt Q9Y5N1) is 6.97

----------
target: gpH1R (Cavia porcellus, UniProt P31389); assay: Histamine H1 receptor assay on isolated guinea pig ileum
Sequence (P31389 whole entry): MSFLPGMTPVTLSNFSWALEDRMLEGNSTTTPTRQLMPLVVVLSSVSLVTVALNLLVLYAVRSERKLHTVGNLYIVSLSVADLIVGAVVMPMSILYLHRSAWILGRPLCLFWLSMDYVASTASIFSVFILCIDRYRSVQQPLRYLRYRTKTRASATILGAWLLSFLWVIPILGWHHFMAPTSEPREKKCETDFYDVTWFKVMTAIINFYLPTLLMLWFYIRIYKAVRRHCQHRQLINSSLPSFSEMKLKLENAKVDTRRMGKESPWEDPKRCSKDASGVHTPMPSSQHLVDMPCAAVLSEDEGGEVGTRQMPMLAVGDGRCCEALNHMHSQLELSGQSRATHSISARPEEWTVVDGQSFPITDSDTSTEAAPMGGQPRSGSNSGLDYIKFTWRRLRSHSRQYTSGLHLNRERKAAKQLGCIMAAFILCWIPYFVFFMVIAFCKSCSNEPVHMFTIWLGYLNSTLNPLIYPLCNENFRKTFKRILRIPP
property-measured: Kb (nM)
Just the number please, in nM, no unit attached.

The measured Kb associated with c1nc(CCCNC2=NCCCN2)c[nH]1 [Compound 145] reads 5750

The measured Kb associated with CCCCCCCCCCNC(=N)NCCCc1c[nH]cn1 [Compound 137] reads 182

The measured Kb associated with N=C(NCCCCCCNC(=N)NCCCc1c[nH]cn1)NCCCc1c[nH]cn1 [Compound 55] reads 2040

The measured Kb associated with N=C(NCCCNC(=N)NCCCc1c[nH]cn1)NCCCc1c[nH]cn1 [Compound 53] reads 631

The measured Kb associated with N=C(NCCCCCCCCNC(=N)NCCCc1cnc(N)s1)NCCCc1c[nH]cn1 [Compound 62] reads 977

The measured Kb associated with CCCCCCCCCCCCNC(=N)NCCCn1ccnc1 [Compound 141] reads 372

The measured Kb associated with CC(C)CNC(=N)NCCCc1c[nH]cn1 [Compound 132] reads 10200

The measured Kb associated with CNC(=N)NCCCc1c[nH]cn1 [Compound 127] reads 58900

The measured Kb associated with CCCCCCCCCCCCNC(=N)NCCCc1cnc(N)s1 [Compound 140] reads 372

The measured Kb associated with N=C(NCCCCCCCCNC(=N)NCCCc1c[nH]cn1)NCCCc1c[nH]cn1 [Compound 5] reads 1700

The measured Kb associated with CC(C)CCNC(=N)NCCCc1c[nH]cn1 [Compound 135] reads 7240

The measured Kb associated with CCCCNC(=N)NCCCc1c[nH]cn1 [Compound 131] reads 4070

The measured Kb associated with N=C(NCCCCNC(=N)NCCCc1c[nH]cn1)NCCCc1c[nH]cn1 [Compound 54] reads 1290

The measured Kb associated with Cc1nc(N)sc1CCCNC(=N)NCCCCCCCCNC(=N)NCCCc1cnc(N)s1 [Compound 63] reads 1000

The measured Kb associated with N=C(NCCCCCCCCCCNC(=N)NCCCc1c[nH]cn1)NCCCc1c[nH]cn1 [Compound 56] reads 229

The measured Kb associated with Cc1nc(N)sc1CCCNC(=N)NCCCCCCCCNC(=N)NCCCc1c[nH]cn1 [Compound 61] reads 1410

The measured Kb associated with CCNC(=N)NCCCc1c[nH]cn1 [Compound 128] reads 8320

The measured Kb associated with N=C(NCCCCCCCCNC(=N)NCCCc1cnc(N)s1)NCCCc1cnc(N)s1 [Compound 59] reads 832

Where do the numbers come from? From paper PMC6130797.
